B1: DFFB (parent)
chain: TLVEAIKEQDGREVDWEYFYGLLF

- Variants of: B1
- TEST: protein stability index of a GFP-peptide fusion (GPS, HEK-293T) (PSI 1-6); higher = more stable;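 further: lentivirally expressed fusions sorted by FACS into six bins by GFP to DsRed ratio, PSI derived from sequencing read proportions per bin multiplied by bin number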
- TEST PARAMETERS: c terminus: a fixed tail appended
METRIC: protein stability index

SEQ TEXT | MEASUREMENT
TLVEAIKEQDGREVDMEYFYGLLF | 2.05
TLVEAIDEQDGREVDWEYFYGLLF | 1.58
TMVEAIKEQDGREVDWEYFYGLLF | 2.15
TLVEAIKYQDGREVDWEYFYGLLF | 2.48
